Consider the following compounds; for each one, report its log10 IC50.
# Tested on: MGC-803
# Test Summary: Cytotoxicity against human MGC803 cells after 24 hrs by SRB assay
# Type: functional, cell-based
# Setup Conditions: MGC-803, 24 h
Record value = log10 of IC50 given in µM.

// returns log10 IC50 for O=C1C=C[C@H](O)[C@@H]2[C@@H]1C[C@@]13SS[C@]4(C[C@@H]5C(=O)C=C[C@H](O)[C@H]5N4C1=O)C(=O)N23 [EPICORAZINE A] with MGC-803; value = 0.43

// returns log10 IC50 for "CS[C@@]12C[C@@H]3C(=O)C=C[C@H](O)[C@H]3N1C(=O)[C@]1(SC)C[C@@H]3C(=O)C=C[C@H](O)[C@H]3N1C2=O" with MGC-803; value = 0.62

// returns log10 IC50 for "COc1cccc2c1C(=O)c1c(O)c3c(c(O)c1C2=O)C[C@@](O)(C(=O)CO)C[C@@H]3O[C@H]1C[C@H](N)[C@H](O)[C@H](C)O1" with MGC-803; value = -0.77

// returns log10 IC50 for "CS[C@@]1(Cc2ccccc2)NC(=O)[C@]2(SC)CC3=CC=C[C@H](O)[C@H]3N2C1=O" with MGC-803; value = 0.93

// returns log10 IC50 for "O=C1C=C[C@H](O)[C@@H]2[C@@H]1C[C@@]13SS[C@]4(C[C@H]5C(=O)C=C[C@H](O)[C@H]5N4C1=O)C(=O)N23" with MGC-803; value = 0.72

// returns log10 IC50 for "O=C1C=C[C@H](O)[C@@H]2[C@@H]1C[C@@]13SS[C@]4(C[C@H]5C(=O)C[C@H](O)[C@H](O)[C@H]5N4C1=O)C(=O)N23" with MGC-803; value = 0.53
